Overview of recorded Kd for various binders
Target: human alpha-synuclein monomer (human, UniProt P37840 1-140)
Assay: SPR (Biacore 8K), IgG captured on anti-human Fc, aSyn monomer injected
recorded_endpoint: Kd (nM)

binder="HC6_LC_k3_1 (antibody, V domains shown) VH: EVQLVESGGGLVQPGGSLRLSCAASGFTFSNAAMYWVRQAPGKGLELVSRIRTKPNNYATYHADSVKGRFTISRDDSKNTLYLQMNSLRAEDTAVYYCTADMATGDYWGQGTLVTVSS VL: EIVMTQSPATLSLSPGERATLSCKASQNINNNLDWYQQKPGQAPRPLIYSTNNLKTGIPARFSGSGSGTDFTLTISSLQPEDFAVYYCYQYKSAWTFGQGTKVEIK" recorded_endpoint=Kd quantitative_readout=0.16
binder="HC6_LC_k3_12 (antibody, V domains shown) VH: EVQLVESGGGLVQPGGSLRLSCAASGFTFSNAAMYWVRQAPGKGLELVSRIRTKPNNYATYHADSVKGRFTISRDDSKNTLYLQMNSLRAEDTAVYYCTADMATGDYWGQGTLVTVSS VL: EIVMTQSPATLSLSPGERATLSCKASQNINDNLDWYQQKPGQAPRPLIYSTNNLKTGIPARFSGSGSGTDFTLTISSLQPEDFAVYYCYQYKSAWTFGQGTKVEIK" recorded_endpoint=Kd quantitative_readout=0.15
binder="HC5_LC_k3_3 (antibody, V domains shown) VH: EVQLVESGGGLVQPGGSLRLSCAASGFTFSNAAMYWVRQAPGKGLELLARIRTKPNNYATYHADSVKGRFTISRDDSKNTVYLQMNSLRAEDTAVYYCTADMATGDYWGQGTLVTVSS VL: EIVMTQSPATLSLSPGERATLSCKASQNINQNLDWYQQKPGQAPRPLIYSTNNLKTGIPARFSGSGSGTDFTLTISSLQPEDFAVYYCYQYKSAWTFGQGTKVEIK" recorded_endpoint=Kd quantitative_readout=0.17
binder="20H4_HC5_L1_1 (antibody, V domains shown, also called 20H4_H5_L1_1; hu20H4) VH: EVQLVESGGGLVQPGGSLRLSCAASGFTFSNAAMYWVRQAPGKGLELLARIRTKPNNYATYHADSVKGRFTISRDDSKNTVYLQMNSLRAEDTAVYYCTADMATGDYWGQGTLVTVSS VL: DIQMTQSPSSLSASVGDRVTITCKASQNINNNLDWYQQKPGKAPKPLIYSTNNLKTGVPSRFSGSGSGTDFTLTISSLQPEDFATYYCYQYKSAWTFGQGTKVEIK" recorded_endpoint=Kd quantitative_readout=0.1
